Taken from the Human Domainome abundance scans (Beltran et al. 2025).

B1: POU domain, class 3, transcription factor 4, residues 280 to 335; numbered along this chain, P49335 (parent)
chain: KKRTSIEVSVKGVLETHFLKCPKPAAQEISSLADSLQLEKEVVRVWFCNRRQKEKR

Variants of: B1
Assay: abundance fitness (aPCA) (normalised: wild type 0, dead -1); higher = more abundant; growth selection in yeast, the domain comes from the species named
Details: Homo sapiens
Listed variants paired with reported abundance fitness
# answer = number (no unit)

Sample answers from the record:
>>> df
                             residue_string  observed
0  KKRTSIEVSVKGVLETHFLKCPKPAAQEISSLIDSLQLEKEVVRVWFCNRRQKEKR    -0.802
1  KKRTSIEVSVKGVLETHFLKCPKPAAQEISSLADSLQLEKEVVRVWFCNIRQKEKR     -0.93
2  KKRTSIEVSVKGVLETHFLKCPKPAAQEISSLADSLQLEKEVVRVWFCNRRMKEKR     0.071
3  KKRTSIEGSVKGVLETHFLKCPKPAAQEISSLADSLQLEKEVVRVWFCNRRQKEKR      0.49
4  KKRTSIEVSVKGVLETHFLKCPKPAAQEISHLADSLQLEKEVVRVWFCNRRQKEKR     0.219
5  KKRTSIEVSVKGVLETHFLKCPKPAAQEISSLADSLQLEKEVVRVWFCNRRQSEKR    -0.318

[ask] For the variant shown here, "KKRTSIEVSVKGVLETHFLKCPKPAAQEISSLADSLQLEKEVVRVTFCNRRQKEKR" , give the reported abundance fitness.
[reply] -0.709

[ask] For the variant shown here, "KKRTSIEVSVKGVLETHFLKCPKPAAQEISSLADSLQWEKEVVRVWFCNRRQKEKR" , give the reported abundance fitness.
[reply] -0.884

[ask] For the variant shown here, "KKRTSIEVSVKGVLERHFLKCPKPAAQEISSLADSLQLEKEVVRVWFCNRRQKEKR" , give the reported abundance fitness.
[reply] 0.059

[ask] For the variant shown here, "KKRTSIDVSVKGVLETHFLKCPKPAAQEISSLADSLQLEKEVVRVWFCNRRQKEKR" , give the reported abundance fitness.
[reply] 0.327

[ask] For the variant shown here, "KKRTSIEVSVKGVLHTHFLKCPKPAAQEISSLADSLQLEKEVVRVWFCNRRQKEKR" , give the reported abundance fitness.
[reply] -0.873

[ask] For the variant shown here, "KKRTSIEVSVKGVLETHFLKCPKPAAQEISSLADSLQLEKEVVGVWFCNRRQKEKR" , give the reported abundance fitness.
[reply] -0.473

[ask] For the variant shown here, "KKRTSIEVSVKGVLETHFLKCPKPAAQEISSLADSLQLEKEVIRVWFCNRRQKEKR" , give the reported abundance fitness.
[reply] -0.543
